target: full-length human PD-1 expressed on cells (human, UniProt Q15116 25-288); assay: cell-based or functional assay
Sequence (Q15116 25-288 limits assumed): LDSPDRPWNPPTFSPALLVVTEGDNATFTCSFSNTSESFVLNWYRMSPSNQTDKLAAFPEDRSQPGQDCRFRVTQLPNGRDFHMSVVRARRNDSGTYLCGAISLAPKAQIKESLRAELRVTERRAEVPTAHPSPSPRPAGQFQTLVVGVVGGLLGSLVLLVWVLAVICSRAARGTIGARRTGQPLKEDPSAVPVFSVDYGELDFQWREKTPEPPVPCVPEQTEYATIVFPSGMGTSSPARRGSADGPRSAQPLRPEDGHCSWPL
Endpoint: hPD-1 blockade assay IC50

Solved cases (2 shown):
1. MAB-19-0583 (antibody, IgG1, V domains shown, Recombinant humanized hIgG1-LALA antibody) VH: QVQLVESGGDVVKPGRSLRLSCKASGIDFSSVYYMCWVRQAPGKGLEWIACIYVGSSGVSYYATWAKGRFTISRDTSTSTLFLQMNSLRAGDTATYYCARAGYVGAVYVTLTRLDLWGQGTLVTVSS VL: DVVMTQSPSTVSASVGDRVTLTCQSSQSIYTNNDLAWYQQKPGQPPKLLIYDASKLASGVPDRFSGSGSGTDFTLTISSLQADDFATYYCLGGYDDDADNAFGQGTKVEIK: 0.188 µg/mL
2. MAB-19-0613 (antibody, IgG1, V domains shown, Recombinant humanized hIgG1-LALA antibody) VH: QVQLVESGGGLVQPGTSLRLSCSVSGFSLYSYNMGWVRQAPGKGLEYIGIISGGTIGHYASWAKGRFTISRDTSKTTLYLQMNSLTTEDTATYFCARAFYDDYDYNVWGPGTLVTVSS VL: DIQMTQSPSSLSASVGDRVTITCQSSQSVYGNNQLSWYQKKPGQAPKLLIYQASKLETGVPSRFSGSGSGTDFTLTISSLQPEDFATYYCAGGYSSSSDTTFGPGTKVDIK: 0.093 µg/mL

Next binder, hPD-1 blockade assay IC50 to be filled in.
What measured hPD-1 blockade assay IC50 goes with MAB-19-0598 (antibody, IgG1, V domains shown, Recombinant humanized hIgG1-LALA antibody) VH: QVQLVESGGDVVKPGRSLRLSCKASGIDFSSVYYMCWVRQAPGKGLEWIACIYVGSSGVSYYATWAKGRFTISRDTSTSTLFLQMNSLRAGDTATYYCARAGYVGAVYVTLTRLDLWGQGTLVTVSS VL: DIQMTQSPSSLSASVGGTVTITCQSSQSIYTNNDLAWYQQKPGQPPKLLIYDASKLASGVPSRFSGSGSGTQFTLTISSLQSEDAATYYCLGGYDDDADNAFGGGTEVVVK ?
0.368 µg/mL
